The origin of these recorded values is patent US20260031189A1.

- EXPERIMENTAL TARGET: DRB1*15:01 (Homo sapiens, UniProt P01903+P01911)
- ASSAY TEXT: Differential scanning fluorometry (DSF) peptide exchange assay
- Format: binding
- ASSAY CONTEXT: peptide exchanged onto DRB1*15:01
QUANTITY NAME: Average Tm
No unit in the answer, only the number.

| RESIDUE CODES | Average Tm |
| --- | --- |
| PPIDGYPNHPCFEPE [exchange peptide loaded on DRB1*15:01] | 79.7 |
| PQLRQWWAQGADPLA [exchange peptide loaded on DRB1*15:01] | 78.4 |
| LLRPGQIVAFDSTAQ [exchange peptide loaded on DRB1*15:01] | 63.9 |

Now for another entry.
What value of Average Tm has been reported for the following sequence? ASLRSWPSTWAPWAS [exchange peptide loaded on DRB1*15:01] 78.2

* * *

- EXPERIMENTAL TARGET: DPB1*04:01/DPA1*01:03 (Homo sapiens, UniProt P04440+P20036)
- Construct: made in house; host or cells: Expi293F (MHCII); ExpiCHO-S (HLA-sDM)
- Sequence (P04440 30-225 limits assumed): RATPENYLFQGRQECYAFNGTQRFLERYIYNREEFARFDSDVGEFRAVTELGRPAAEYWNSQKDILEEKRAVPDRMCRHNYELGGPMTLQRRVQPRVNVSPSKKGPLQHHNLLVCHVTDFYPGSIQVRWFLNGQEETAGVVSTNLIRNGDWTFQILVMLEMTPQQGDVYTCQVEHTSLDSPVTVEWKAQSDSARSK
- Sequence (P20036 29-222 limits assumed): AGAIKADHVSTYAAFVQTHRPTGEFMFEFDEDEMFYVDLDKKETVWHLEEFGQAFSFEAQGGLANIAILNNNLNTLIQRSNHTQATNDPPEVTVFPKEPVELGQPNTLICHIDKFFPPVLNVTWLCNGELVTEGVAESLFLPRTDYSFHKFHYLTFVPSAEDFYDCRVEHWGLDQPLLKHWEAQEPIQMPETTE
- ASSAY TEXT: Fluorescence polarization (FP) competition assay with FITC probe and HLA-sDM
- Assay type: binding
Where no end group is shown, it is not given here.
QUANTITY NAME: IC50

Given EKKYFAATKFEPLAARL [reference compound] , state its recorded IC50. 30 nM

* * *

- EXPERIMENTAL TARGET: DRB1*15:01 (Homo sapiens, UniProt P01903+P01911)
- ASSAY TEXT: Differential scanning fluorometry (DSF) peptide exchange assay
- Assay type: binding
- ASSAY CONTEXT: DSF melting curve
Peak by entry:
Would you mind answering with just the numeric figure?

Past entries and their recorded results:
| RESIDUE CODES | Peak |
| --- | --- |
| PPIDGYPNHPCFEPE [exchange peptide loaded on DRB1*15:01] | 4.8 |
| ASLRSWPSTWAPWAS [exchange peptide loaded on DRB1*15:01] | 4.9 |
| LLRPGQIVAFDSTAQ [exchange peptide loaded on DRB1*15:01] | 5.1 |

// switching to the query sequence
So what's the measured Peak for this one? PQLRQWWAQGADPLA [exchange peptide loaded on DRB1*15:01] 5.0

* * *

- EXPERIMENTAL TARGET: DRB1*15:01 (Homo sapiens, UniProt P01903+P01911)
- ASSAY TEXT: Differential scanning fluorometry (DSF) peptide exchange assay
- Format: binding
- ASSAY CONTEXT: DSF melting curve
Entries annotated with measured Slope
The response must contain the number and no unit.

| RESIDUE CODES | EXPERIMENTAL TARGET | Slope |
| --- | --- | --- |
| PPIDGYPNHPCFEPE [exchange peptide loaded on DRB1*15:01] | DRB1*15:01 (Homo sapiens, UniProt P01903+P01911) | 0.5 |
| PQLRQWWAQGADPLA [exchange peptide loaded on DRB1*15:01] | DRB1*15:01 (Homo sapiens, UniProt P01903+P01911) | 0.4 |
| LLRPGQIVAFDSTAQ [exchange peptide loaded on DRB1*15:01] | DRB1*15:01 (Homo sapiens, UniProt P01903+P01911) | 0.4 |

Kindly review the next sequence as well.
Fill in the blank: the reported Slope of ASLRSWPSTWAPWAS [exchange peptide loaded on DRB1*15:01] is ____. 0.4
